Source: PubChem BioAssay (NCI)

tested on: SF-539 CNS; assay: NCI-60 one-dose screen, 48 h (100 = growth as untreated, 0 = no growth, -100 = all killed); conditions: 10 µM
The panel holds about 83,000 compounds, 20% with a hit somewhere; the sample as a whole holds those more often.
valueKind: growth (%)
Give your result in % as a bare value.

Case COc1ccc(C2C=C(c3ccc(Cl)cc3)N=C3SC=CN32)c(Br)c1 (centres undefined) , SF-539 CNS, growth recorded as 91.1

Case O=C1/C(=C/c2ccc(O)cc2)Cc2ccc(Cl)cc21 , SF-539 CNS, growth recorded as 82.6

Case COc1cc2nc(Sc3sc(N)nc3C)n(-c3ccc(Oc4ccccc4)cc3)c(=O)c2cc1OC , SF-539 CNS, growth recorded as 81.3

Case O=NN(CCCl)C(=O)Nc1ccc(NC(=O)N(CCCl)N=O)cc1 , SF-539 CNS, growth recorded as 19.7

Case COc1cc(C(=O)n2nc(N)c3c(C)cc(C)nc32)cc(OC)c1OC , SF-539 CNS, growth recorded as 64.6

Case CCCN(CCC)CCCNC(=O)c1cc2c(-c3ccc(OC)c(OC)c3)nn(C)c2s1 , SF-539 CNS, growth recorded as 10.9

Case COc1ccccc1NC1=C(N2CCCCC2)C(=O)c2ccccc2C1=O , SF-539 CNS, growth recorded as 93.6

Case O=c1[nH]c(=O)n(C2C[C@@H](O)[C@@H](CO)O2)cc1F (some centres undefined) , SF-539 CNS, growth recorded as 5.71

Case S=c1c2ncccc2c(-c2ccccn2)nn1Cc1ccccn1 , SF-539 CNS, growth recorded as 99.7
